B1: ZNF8 (parent)
chain: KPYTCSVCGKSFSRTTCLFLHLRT

Variants of: B1
Protocol Summary: protein stability index of a GFP-peptide fusion (GPS, HEK-293T) (PSI 1-6); higher = more stable;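 also: lentivirally expressed fusions sorted by FACS into six bins by GFP to DsRed ratio, PSI derived from sequencing read proportions per bin multiplied by bin number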
Condition Set: c terminus: a fixed tail appended
Metric Name: protein stability index

>>> test_value("K10P")
2.84
>>> test_value("Y3G")
1.61
>>> test_value("C5K")
3.15
>>> test_value("K1I")
2.04
>>> test_value("C5M")
2.18
>>> test_value("L18K")
2.9
>>> test_value("C17W")
1.5
>>> test_value("F19H")
2.26
>>> test_value("F12W")
1.72
>>> test_value("P2K")
2.05
>>> test_value("G9C")
2.43
>>> test_value("V7I")
2.2
>>> test_value("C17V")
1.85
>>> test_value("T4G")
2.51
>>> test_value("L22A")
2.08
>>> test_value("L20N")
2.56
>>> test_value("Y3Q")
2.01
>>> test_value("S6T")
1.73
>>> test_value("S13V")
2.15
>>> test_value("S13N")
1.76
>>> test_value("C17N")
1.96
>>> test_value("S6C")
1.71

These entries and their values trace back to the supplement of paper PMC10567573.
